- EXPERIMENTAL SYSTEM: T1, hBCMA (human BCMA) (Homo sapiens, UniProt Q02223)
- T1 sequence (Q02223 1-184): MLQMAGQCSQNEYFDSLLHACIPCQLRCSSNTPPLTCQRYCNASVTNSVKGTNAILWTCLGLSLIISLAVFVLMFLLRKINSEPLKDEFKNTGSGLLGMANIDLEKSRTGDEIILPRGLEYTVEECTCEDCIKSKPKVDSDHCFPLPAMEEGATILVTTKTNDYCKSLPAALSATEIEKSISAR
- TEST METHOD NOTES: Kinetics and affinity of hBCMA/human IgG interactions by SPR (Bio-Rad Proteon XPR36)
- Format: binding
- EXPERIMENTAL CONTEXT: huBCMA, 37° C.
Kind request: treat 0.002 s⁻¹ as inclusive, so kd (1/s) huBCMA @37° C. at 0.002 s⁻¹ or higher is 1.0, anything lower is 0.0.

Enquiry: Please check the record L3.PY/L1.AH/H2.LT: anti-BCMA antibody (antibody, V domains shown) VH: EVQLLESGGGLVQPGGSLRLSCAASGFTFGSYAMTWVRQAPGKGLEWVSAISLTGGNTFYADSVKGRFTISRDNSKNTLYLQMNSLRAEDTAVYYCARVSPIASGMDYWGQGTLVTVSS VL: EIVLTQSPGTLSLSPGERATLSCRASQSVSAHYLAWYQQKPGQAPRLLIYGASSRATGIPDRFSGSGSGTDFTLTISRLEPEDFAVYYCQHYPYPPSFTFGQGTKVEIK and state if its kd (1/s) huBCMA @37° C. is at or above 0.002 s⁻¹.
Return: 0.0

Enquiry: Please check the record L3.PY/L1.FF/H2.HA: anti-BCMA antibody (antibody, V domains shown) VH: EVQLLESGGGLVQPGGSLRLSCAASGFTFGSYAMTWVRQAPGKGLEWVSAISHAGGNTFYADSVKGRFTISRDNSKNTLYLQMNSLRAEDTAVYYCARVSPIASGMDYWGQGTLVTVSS VL: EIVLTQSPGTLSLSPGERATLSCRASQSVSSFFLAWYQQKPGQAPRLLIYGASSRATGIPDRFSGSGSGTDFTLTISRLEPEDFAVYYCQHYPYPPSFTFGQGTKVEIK and state if its kd (1/s) huBCMA @37° C. is at or above 0.002 s⁻¹.
Return: 1.0

Enquiry: Please check the record L3.PY/L1.PS/H2.LT: anti-BCMA antibody (antibody, V domains shown) VH: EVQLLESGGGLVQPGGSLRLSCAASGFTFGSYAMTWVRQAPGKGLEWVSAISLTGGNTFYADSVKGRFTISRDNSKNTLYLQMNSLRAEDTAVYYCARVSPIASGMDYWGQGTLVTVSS VL: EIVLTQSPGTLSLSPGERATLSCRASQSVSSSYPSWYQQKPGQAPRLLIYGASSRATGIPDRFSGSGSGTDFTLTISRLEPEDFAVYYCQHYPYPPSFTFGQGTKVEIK and state if its kd (1/s) huBCMA @37° C. is at or above 0.002 s⁻¹.
Return: 1.0

Enquiry: Please check the record L3.PY/L1.FF/H3.AE: anti-BCMA antibody (antibody, V domains shown) VH: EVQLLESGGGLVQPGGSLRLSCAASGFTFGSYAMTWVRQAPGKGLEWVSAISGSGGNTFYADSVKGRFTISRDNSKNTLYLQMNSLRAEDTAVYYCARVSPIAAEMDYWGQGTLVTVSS VL: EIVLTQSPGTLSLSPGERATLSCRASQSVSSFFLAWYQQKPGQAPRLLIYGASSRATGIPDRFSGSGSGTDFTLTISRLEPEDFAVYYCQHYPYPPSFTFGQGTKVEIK and state if its kd (1/s) huBCMA @37° C. is at or above 0.002 s⁻¹.
Return: 1.0

Enquiry: Please check the record L3.PY/L3.KY/H2.QR: anti-BCMA antibody (antibody, V domains shown) VH: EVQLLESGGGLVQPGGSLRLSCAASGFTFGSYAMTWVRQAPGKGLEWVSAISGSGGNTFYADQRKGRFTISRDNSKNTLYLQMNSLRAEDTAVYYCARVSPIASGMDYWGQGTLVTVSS VL: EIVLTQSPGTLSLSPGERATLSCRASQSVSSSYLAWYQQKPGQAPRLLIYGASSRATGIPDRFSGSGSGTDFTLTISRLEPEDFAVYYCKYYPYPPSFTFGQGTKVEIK and state if its kd (1/s) huBCMA @37° C. is at or above 0.002 s⁻¹.
Return: 0.0

Enquiry: Please check the record L3.PY/L1.PS/H2.QL: anti-BCMA antibody (antibody, V domains shown) VH: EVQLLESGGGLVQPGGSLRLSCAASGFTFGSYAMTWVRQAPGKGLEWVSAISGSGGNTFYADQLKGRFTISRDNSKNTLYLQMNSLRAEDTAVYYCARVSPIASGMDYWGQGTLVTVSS VL: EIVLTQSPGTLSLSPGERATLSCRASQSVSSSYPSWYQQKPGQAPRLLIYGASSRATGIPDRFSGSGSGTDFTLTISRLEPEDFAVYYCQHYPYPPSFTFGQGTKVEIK and state if its kd (1/s) huBCMA @37° C. is at or above 0.002 s⁻¹.
Return: 1.0

Enquiry: Please check the record L3.PY/L1.PH/H2.HA: anti-BCMA antibody (antibody, V domains shown) VH: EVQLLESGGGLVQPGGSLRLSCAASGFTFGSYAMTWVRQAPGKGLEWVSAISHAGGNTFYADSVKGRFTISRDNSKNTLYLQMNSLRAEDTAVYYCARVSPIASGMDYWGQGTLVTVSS VL: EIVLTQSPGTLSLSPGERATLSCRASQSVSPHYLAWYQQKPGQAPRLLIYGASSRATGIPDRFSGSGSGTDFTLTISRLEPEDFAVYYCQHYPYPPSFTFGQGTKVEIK and state if its kd (1/s) huBCMA @37° C. is at or above 0.002 s⁻¹.
Return: 0.0

Enquiry: Please check the record L3.PY/L3.KY/H2.HA: anti-BCMA antibody (antibody, V domains shown) VH: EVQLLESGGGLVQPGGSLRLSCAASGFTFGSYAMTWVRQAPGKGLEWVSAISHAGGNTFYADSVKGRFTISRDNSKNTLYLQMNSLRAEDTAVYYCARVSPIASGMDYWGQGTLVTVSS VL: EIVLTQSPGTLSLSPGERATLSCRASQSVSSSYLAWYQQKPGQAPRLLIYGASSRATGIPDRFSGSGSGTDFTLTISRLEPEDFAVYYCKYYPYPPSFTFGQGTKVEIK and state if its kd (1/s) huBCMA @37° C. is at or above 0.002 s⁻¹.
Return: 0.0

Enquiry: Please check the record L3.PY/L1.PH/H3.TAQ: anti-BCMA antibody (antibody, V domains shown) VH: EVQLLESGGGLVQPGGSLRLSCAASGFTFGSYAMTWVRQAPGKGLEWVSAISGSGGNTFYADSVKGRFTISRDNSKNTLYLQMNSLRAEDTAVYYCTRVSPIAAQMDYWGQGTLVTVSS VL: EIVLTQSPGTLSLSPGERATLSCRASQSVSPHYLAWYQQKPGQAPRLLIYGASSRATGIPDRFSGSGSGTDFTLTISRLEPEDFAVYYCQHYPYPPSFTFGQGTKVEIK and state if its kd (1/s) huBCMA @37° C. is at or above 0.002 s⁻¹.
Return: 1.0
